- Protocol: Phase 1a multiple ascending dose study: Compound 1 in fecal samples
- Type: in vivo, human
- Particulars: human, feces, oral, Day 7; read-out: Mean recovery of Compound 1 in feces, range across cohorts
- Description: Fecal samples were collected, when possible, over 24 hours (0-24 hours) post administration on Day 1 and Day 7; the absolute amount of Compound 1 measured (mg) is shown Table 48.
Quantity: dose excreted

Entry CC(C)(C)OC(=O)N1CCN(Cc2ccn(Cc3ccc(Cl)cc3)c(=O)c2O)CC1 [Compound 1] : reported dose excreted = ?
19 to 52%

###

- Protocol: Phase 1a multiple ascending dose study (oral solution): plasma pharmacokinetics
- Format: in vivo, human
- Particulars: human, plasma, oral, 60 mg, Cohort 5, 60 mg once daily; Day 7; Hour 2; read-out: Compound 1 concentration, Conc (SD)
Quantity: concentration at 2 h
Don't forget the unit after the value.

Entry CC(C)(C)OC(=O)N1CCN(Cc2ccn(Cc3ccc(Cl)cc3)c(=O)c2O)CC1 : reported concentration at 2 h = ?
2.57 ng/mL
